biological target: FKBP51 variant D68Y (Homo sapiens, UniProt Q13451, D68Y); construct: made in house; host or cells: E. coli BL21 (DE3); test: Competitive fluorescence polarization assay, FKBP51 D68Y; conditions: 80-100 nM FKBP51 D68Y; 1 nM FK [431]-TA tracer; 30 min room temperature; fitted as KI in competitive binding model; read-out: Kd-value (ligand binding constant, competitive fluorescence polarization)
ASSAY READOUT: Kd
Hi, when you answer, please include the unit after the number. Thanks!

Q: Query: Kd; subject: COc1ccc(CC[C@@H](OC(=O)[C@@H]2CCCCN2C(=O)[C@H](c2cc(OC)c(OC)c(OC)c2)C2CCCCC2)c2cccc(OCC(=O)O)c2)cc1OC [SAFit1]
Result: 0.2 nM

* * *

Molecular target: FKBP51 variant G64S (Homo sapiens, UniProt Q13451, G64S)
Construct: made in house; host or cells: E. coli BL21 (DE3)
Sequence (Q13451 1-140 G64S): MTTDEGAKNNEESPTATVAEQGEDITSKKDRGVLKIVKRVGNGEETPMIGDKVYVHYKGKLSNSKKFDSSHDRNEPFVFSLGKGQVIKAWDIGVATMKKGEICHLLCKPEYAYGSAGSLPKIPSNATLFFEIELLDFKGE
Experiment: Competitive fluorescence polarization assay, FKBP51 G64S
Conditions: 10-40 nM FKBP51 G64S; 1 nM FK [431]-TA tracer; 30 min room temperature; fitted as KI in competitive binding model; read-out: Kd-value (ligand binding constant, competitive fluorescence polarization)
ASSAY READOUT: Kd
The answer should read as a number with its unit following.

Q: Request - read-out Kd | tested on FKBP51 variant G64S (Homo sapiens, UniProt Q13451, G64S) | molecule COc1ccc(CC[C@@H](OC(=O)[C@@H]2CCCCN2C(=O)[C@H](c2cc(OC)c(OC)c(OC)c2)C2CCCCC2)c2cccc(OCC(=O)O)c2)cc1OC
Result: 0.5 nM

* * *

Target: FKBP51 WT (Homo sapiens)
Sequence (Q13451 1-140): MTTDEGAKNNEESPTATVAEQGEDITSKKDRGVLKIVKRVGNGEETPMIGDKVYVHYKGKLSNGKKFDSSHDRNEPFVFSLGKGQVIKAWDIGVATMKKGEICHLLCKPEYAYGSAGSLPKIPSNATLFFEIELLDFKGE
ASSAY READOUT: pKd
Keep it numeric: pKd is minus log10 of the concentration in mol/L.

Q: Can you look up the measured pKd of COc1ccc(CC[C@@H](OC(=O)[C@@H]2CCCCN2C(=O)[C@H](c2cc(OC)c(OC)c(OC)c2)C2CCCCC2)c2cccc(OCC(=O)O)c2)cc1OC [SAFit1] for me?
Result: 8.32
